# METHOD_DESCRIPTION: Cellular Toxicity (caspase-3) Mesangial (AID 660);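 note: combined caspase 3 and 7 activity read by Caspase-Glo luminescence; cells exposed to compound for 16 h before the caspase read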
# ASSAY_SETUP: mesangial cells, normalized: DMSO 0%, 100 µM tamoxifen 100%; at 91.7 µM (top of the series)
# caspase-3 activation values compiled below
Number in %, nothing else.

{"columns": ["SAMPLE_SMILES", "MEASURED_NUMBER"],
 "data": [
  ["CC(=O)Nc1ccc(C(=O)CCl)cc1", -4.19],
  ["ClC1=C(Cl)C(Cl)(Cl)C(Cl)=C1Cl", 0.653],
  ["Nc1ccc2cc3ccccc3cc2c1", -0.235],
  ["O=Cc1ccc(Cl)c(Cl)c1", -1.53],
  ["Oc1ccc2cc(SSc3ccc4cc(O)ccc4c3)ccc2c1", -1.21]
]}

Ask: Please indicate caspase-3 activation recorded for Cc1ccc(S(=O)(=O)Oc2ccc(N=Nc3ccc(-c4ccc(N=Nc5c(O)ccc6cc(S(=O)(=O)O)cc(S(=O)(=O)O)c56)c(C)c4)cc3C)cc2)cc1
Reply: -0.709

Ask: Determine its reported caspase-3 activation: C=CC(=O)OCCOCCOC(=O)C=C
Reply: 0.177

Ask: Retrieve caspase-3 activation measured for Cc1cc(O)c(C(C)(C)C)cc1Sc1cc(C(C)(C)C)c(O)cc1C and print it.
Reply: 140

Ask: Input O=[N+]([O-])c1cc([N+](=O)[O-])c2ccc(S(=O)(=O)O)cc2c1O , output reported caspase-3 activation.
Reply: 1.36

Ask: Quick one: give measured caspase-3 activation for CN(C)c1ccc(C2(c3ccc(N(C)C)cc3)OC(=O)c3cc(N(C)C)ccc32)cc1
Reply: 0.256

----------
# METHOD_DESCRIPTION: qHTS for Inhibitors of Plasmodium falciparum (HB3) proliferation (AID 504318);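 note: 0% = DMSO vehicle and -100% = artemisinin control; nearly all actives have a fitted effect of over 60% in size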
# ASSAY_SETUP: P. falciparum HB3 in erythrocytes, SYBR Green DNA, 72 h; series mostly up to 7.21 µM
Inconclusive results are not listed. Calls of active or inactive are those of the source. The call rests on the fitted dose curve; in most records, active means well fitted inhibition curve with a large enough effect; inconclusive means small, poorly fitted or top-dose-only effect; inactive means flat fitted curve, though single readings scatter.
MEASURE_NAME: outcome

{"columns": ["MOLECULE", "outcome"],
 "data": [
  ["COCCN1C(=O)N[C@@H](c2cccs2)C(C(C)=O)=C1C", "inactive"],
  ["Cc1ccc(S(=O)(=O)N[C@@H]2COC(=O)[C@@H](C)COC(=O)CC=C[C@H]2C)cc1", "inactive"],
  ["COC/C=C/C1=CC2=CC(=O)C(C)(OC(=O)c3cnc4ccccc4n3)C(=O)C2=CN1Cc1ccc(OC)cc1 (stereo not given)", "inactive"],
  ["COc1ccc(-c2nc3c(c4c2C[C@H](c2ccccc2)OC4)CN(C(=O)NCCc2c[nH]c4ccccc24)CC3)c(C)c1", "inactive"]
]}

In the following, a different molecule is considered.
Ask: Answer with the recorded outcome of COCCN1C(=O)N[C@@H](c2ccccc2)[C@@H](C(=O)OC)[C@H]1C only.
Reply: inactive

----------
# Tested on: CP185
# METHOD_DESCRIPTION: qHTS profiling for inhibitors of Plasmodium falciparum proliferation (AID 504749); note: nearly all actives have a fitted effect of over 60% in size
# ASSAY_SETUP: P. falciparum in erythrocytes, SYBR Green DNA, 72 h; series mostly up to 28.7 µM
Results filed as inconclusive are left out. The source made the active and inactive calls. Calls come from the whole dose curve; as a rule, active = well fitted inhibition curve with a large enough effect; inconclusive = small, poorly fitted or top-dose-only effect; inactive = flat fitted curve, though single readings scatter.
Choose the fitting class; nothing outside 1.0 for active, 0.0 for inactive is accepted.

{"columns": ["MOLECULE", "CAT"],
 "data": [
  ["CCCCCOC(=O)Nc1nc(=O)n(C2O[C@H](C)[C@@H](O)[C@@H]2O)cc1F (some centres undefined)", 0.0],
  ["CC1(C)SC2[C@@H](N=CN3CCCCCC3)C(=O)N2[C@H]1C(=O)O (some centres undefined)", 0.0],
  ["C[n+]1c2cc(N)ccc2cc2ccc(N)cc21", 1.0],
  ["CC1OC(OCC2OC(Oc3c(-c4ccc(OCCO)c(OCCO)c4)oc4cc(OCCO)cc(O)c4c3=O)C(O)C(O)C2O)[C@@H](O)C(O)C1O (some centres undefined)", 0.0],
  ["O=c1[nH]c(=O)n(C2C[C@H](O)[C@@H](CO)O2)cc1C(F)(F)F (some centres undefined)", 0.0],
  ["OCC1O[C@H](O[C@H]2C(O)C(O)C(O)O[C@@H]2CO)C(O)C(O)C1O (some centres undefined)", 0.0]
]}

Ask: Kindly provide the recorded test outcome for the following molecule: C=C1/C(=C\C=C2/CCC[C@]3(C)[C@@H]([C@H](C)/C=C/[C@@H](O)C4CC4)CC[C@@H]23)C[C@@H](O)C[C@@H]1O
Reply: 0.0

Ask: Can you look up the reported call for OCC1OC(O)C(O)C(O)C1O (centres undefined) for me?
Reply: 0.0

Ask: Recorded test outcome, item C/C(=C(/CCOC(=O)C(C)C)SS/C(CCOC(=O)C(C)C)=C(\C)N(C=O)Cc1cnc(C)nc1N)N(C=O)Cc1cnc(C)nc1N
Reply: 0.0

----------
# METHOD_DESCRIPTION: AP1 Signaling Pathway (AID 357);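 note: ME-180 reporter cells stimulated with EGF at its EC50 level; % is set by controls: 0 for no effect and ±100 for the full control effect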
# ASSAY_SETUP: ME-180 (cervical carcinoma) AP-1-bla reporter, EGF-induced, beta-lactamase ratio, 5 h; at 17.2 µM (top of the series) unless noted
Records with an inconclusive call do not appear.
We begin with a simple list: items and their reported activity change, negative = inhibition.
Use % as the unit, but write only the number.

Field: example entries. Status: answers known.
{"columns": ["COMPOUND", "activity change, negative = inhibition / %"],
 "data": [
  ["C=CCn1c(SCc2c(F)c(F)c(F)c(F)c2F)nc(O)cc1=O", 4.5],
  ["CCOC(=O)C1=C(c2ccccc2)NC(SCC(=O)Nc2ccccc2C)=C(C#N)C1c1ccco1 (stereo not drawn)", -1.47],
  ["O=C(NC1(C(F)(F)F)C(=O)Nc2c1c(=O)[nH]c(=O)n2Cc1ccco1)C1CCCCC1 (stereo not drawn)", -8.35],
  ["CCCOc1ccc(C(C)=O)cc1CSCCC#N", -12.7],
  ["CN1C2C=C3C(C#N)=C(N)C(C#N)(C#N)[C@@H](c4ccc(Cl)cc4)[C@@H]3C1CC2 (stereo partly drawn)", -8.82]
]}

Ask: Please give measured activity change, negative = inhibition of the following entry: COc1ccc(S(=O)(=O)N2CCC(N3CCCCC3)CC2)cc1
Reply: 7.98

Ask: Read off the recorded activity change, negative = inhibition for COc1ccc(CC(=O)n2c(CC#N)nc3ccccc32)cc1OC
Reply: -7.74

Ask: Annotate the compound CCC(=O)OC1=C2C(=Nc3c(c(=O)n(C)c(=O)n3C)C2c2ccccc2)c2ccccc21 (stereo not drawn) with its measured activity change, negative = inhibition.
Reply: 8.9

Ask: Determine from records and report activity change, negative = inhibition for CCCCCOC(=O)Cc1c(C)nc(-c2ccccc2)[nH]c1=O
Reply: -3.29

Ask: Give a short answer stating reported activity change, negative = inhibition for O=C(NCc1ccco1)c1cnn2c1NC(c1ccccc1)CC2C(F)(F)F (stereo not drawn) .
Reply: -8.13

----------
# TARGET_SYSTEM: Cytochrome P450 1A2 (Homo sapiens)
# METHOD_DESCRIPTION: p450-cyp1a2 (AID 410); note: potency is the fitted concentration of half-maximal effect
# ASSAY_SETUP: recombinant CYP1A2, luciferin-ME demethylation, luminescence; series mostly up to 57 µM
Results filed as inconclusive are left out. Active and inactive are the calls of the source. The call rests on the fitted dose curve.

{"columns": ["SAMPLE_SMILES", "Potency"],
 "data": [
  ["Cc1cc(CNC(=O)[C@@H]2C[C@H]2[C@@H](NP(=O)(c2ccccc2)c2ccccc2)c2ccccc2)nn1C", "inactive"],
  ["NCCC[C@@H](CC(=O)N[C@@H]1CCNC[C@H]1C(=O)N[C@H](CC(=O)N[C@@H](CCC(=O)O)CC(=O)O)Cc1c[nH]c2ccccc12)NC(=O)C[C@H](Cc1c[nH]c2ccccc12)NC(=O)[C@@H]1CCCC[C@H]1N", "inactive"],
  ["COC(=O)[C@@]1(Cc2ccc(OC)cc2)[C@H]2c3cc(C(=O)N(C)C)[nH]c3C[C@H]2CN1C(=O)c1ccccc1", "20 µM (active)"]
]}

----------
# System: C2A
# METHOD_DESCRIPTION: qHTS profiling for inhibitors of Plasmodium falciparum proliferation (AID 504749); note: nearly all actives have a fitted effect of over 60% in size
# ASSAY_SETUP: P. falciparum in erythrocytes, SYBR Green DNA, 72 h; series mostly up to 28.7 µM
Results filed as inconclusive are left out. Calls of active or inactive are those of the source. The call rests on the fitted dose curve; in most records, active means well fitted inhibition curve with a large enough effect; inconclusive means small, poorly fitted or top-dose-only effect; inactive means flat fitted curve, though single readings scatter.
Select the correct class. Options are true (1) (active), false (0) (inactive) and nothing else.

Here's what some known entries look like.
{"columns": ["COMPOUND", "CAT"],
 "data": [
  ["C[C@@H]1CCN(C(=O)[C@H](CCCNC(=N)N)NS(=O)(=O)c2cccc3c2NC[C@H](C)C3)[C@@H](C(=O)O)C1", "false (0)"],
  ["CCC(=O)O[C@]1(C(=O)CCl)[C@@H](C)CC2C3C[C@H](F)C4=CC(=O)C=CC4(C)[C@@]3(F)C(O)CC21C (some centres undefined)", "true (1)"],
  ["Nc1nc2[nH]cc(CCc3ccc(C(=O)NC(CCC(=O)O)C(=O)O)cc3)c2c(=O)[nH]1 (centres undefined)", "true (1)"]
]}

Moving on to the next compound.
Ask: Given OCC1O[C@@H](O[C@@H]2C(CO)OC(O)C(O)C2O)C(O)C(O)C1O (some centres undefined) , state the outcome it received in this test.
Reply: false (0)
